Test: Cytotoxicity against mouse J774.1 cells after 24 hrs by AlamarBlue based cytotoxicity assay
Format: cell-based
Conditions: J774.1, 24 h
pIC50: −log10 of the molar value.
Respond with class 1 for pIC50 values of 5 and above, class 0 for values below.

Problem: # bool: pIC50 of CC1(C)CCc2c(nc3cc(Cl)ccc3c2NCCCCCCNc2c3c(nc4cc(Cl)ccc24)CC(C)(C)CC3)C1 >= 5
Solution: class 1

Problem: # bool: pIC50 of CC1(C)CCc2c(nc3ccccc3c2NCCCCCCNc2c3c(nc4ccccc24)CC(C)(C)CC3)C1 >= 5
Solution: class 1

Problem: # bool: pIC50 of Cc1ccc2nc3c(c(N)c2c1)CCCC3 >= 5
Solution: class 0

Problem: # bool: pIC50 of c1ccc2c(NCCCCCCNc3c4c(nc5ccccc35)CCCC4)c3c(nc2c1)CCCC3 >= 5
Solution: class 1

Problem: # bool: pIC50 of Nc1c2c(nc3ccc([N+](=O)[O-])cc13)CCCC2 >= 5
Solution: class 0

Problem: # bool: pIC50 of Nc1c2c(nc3ccc(Cl)cc13)CCCC2 >= 5
Solution: class 0

Problem: # bool: pIC50 of c1ccc2c(NCCCCCCCCNc3c4c(nc5ccccc35)CCCC4)c3c(nc2c1)CCCC3 >= 5
Solution: class 1

###

Tested on: Plasmodium falciparum
Test: Antimalarial activity against chloroquine-sensitive ring-stage Plasmodium falciparum 3D7 assessed as parasite viability after 72 hrs by malstat assay
Assay type: functional, organism-based
Conditions: 3D7, 72 h
Observation Type: pIC50
Units for pIC50: none; it is -log10 of a concentration expressed in mol/L.

The recorded pIC50 for c1ccc2c(NCCCCCCCNc3c4c(nc5ccccc35)CCCC4)c3c(nc2c1)CCCC3 is 7.15

The recorded pIC50 for c1ccc2c(NCCCCCCNc3c4c(nc5ccccc35)CCCC4)c3c(nc2c1)CCCC3 is 7.00

The recorded pIC50 for c1ccc2c(NCCCCCCCCNc3c4c(nc5ccccc35)CCCC4)c3c(nc2c1)CCCC3 is 6.96

The recorded pIC50 for CC1CCc2c(nc3ccc([N+](=O)[O-])cc3c2NCCCCCCNc2c3c(nc4ccc([N+](=O)[O-])cc24)CC(C)CC3)C1 (stereo not given) is 7.70

The recorded pIC50 for CC1CCc2c(nc3cc(Cl)ccc3c2NCCCCCCNc2c3c(nc4cc(Cl)ccc24)CC(C)CC3)C1 (stereo not given) is 7.30

The recorded pIC50 for CC1(C)CCc2c(nc3ccccc3c2NCCCCCCNc2c3c(nc4ccccc24)CC(C)(C)CC3)C1 is 7.52

The recorded pIC50 for CC1CCc2nc3cc(Cl)ccc3c(NCCCCCCNc3c4c(nc5cc(Cl)ccc35)CCC(C)C4)c2C1 (stereo not given) is 7.52

The recorded pIC50 for c1ccc2c(NCCCCCCCCCCNc3c4c(nc5ccccc35)CCCC4)c3c(nc2c1)CCCC3 is 6.96

The recorded pIC50 for Clc1ccc2c(NCCCCCCNc3c4c(nc5cc(Cl)ccc35)CCCC4)c3c(nc2c1)CCCC3 is 7.70

The recorded pIC50 for Nc1c2c(nc3ccccc13)CCCC2 is 4.90

The recorded pIC50 for CC1(C)CCc2c(nc3ccc([N+](=O)[O-])cc3c2NCCCCCCNc2c3c(nc4ccc([N+](=O)[O-])cc24)CC(C)(C)CC3)C1 is 7.40

The recorded pIC50 for Nc1c2c(nc3ccc(Cl)cc13)CCCC2 is 5.40

The recorded pIC50 for CCCC1CCc2nc3ccccc3c(N)c2C1 (stereo not given) is 5.82

The recorded pIC50 for CCOC1CCc2nc3cc(Cl)ccc3c(NCCCCCCCCCNc3c4c(nc5cc(Cl)ccc35)CCC(OCC)C4)c2C1 (stereo not given) is 6.70

The recorded pIC50 for Cc1ccc2nc3c(c(N)c2c1)CCCC3 is 5.69

The recorded pIC50 for Nc1c2c(nc3ccc([N+](=O)[O-])cc13)CCCC2 is 5.49

The recorded pIC50 for CC1(C)CCc2c(nc3cc(Cl)ccc3c2NCCCCCCNc2c3c(nc4cc(Cl)ccc24)CC(C)(C)CC3)C1 is 7.52

The recorded pIC50 for c1ccc2c(NCCCCCNc3c4c(nc5ccccc35)CCCC4)c3c(nc2c1)CCCC3 is 6.20

The recorded pIC50 for COc1ccc2nc3c(c(NCCCCCCCCCNc4c5c(nc6ccc(OC)cc46)CCCC5)c2c1)CCCC3 is 6.96

The recorded pIC50 for CCCC1CCc2nc3ccc(Cl)cc3c(N)c2C1 (stereo not given) is 6.68
